Catalogue of TGI values
Tested on: SNB-19 CNS
assayRemarks: NCI tumour cell line growth inhibition, 48 h

compound	TGI
COC(=O)c1ccccc1CC1Cc2ccc3c(c2C1=O)CCCC3 (stereo not drawn)	> 100 µM
Cc1cc(NS(=O)(=O)c2ccc(Nc3c4ccccc4nc4c(C(=O)N5CCN(CCOS(C)(=O)=O)CC5)cccc34)cc2)no1	> 100 µM
C=C1C(=O)O[C@@H]2C(=O)[C@@H](C)CCC/C(C)=C/CC[C@@]3(C)O[C@@H]3C[C@@H]12	> 100 µM
Cc1c(O)c(O)cc[n+]1C1OC(CO)C(O)C1O (stereo not drawn)	> 100 µM
CN(C)c1ccc(/C=C\C2=[N+](C)c3ccccc3C2(C)C)cc1	38.1 µM
Cc1cc(Cc2cc(C)c(N)cc2N)c(N)cc1N	> 100 µM
O=c1c2cc([N+](=O)[O-])cnc2sn1-c1ccc([N+](=O)[O-])cc1	> 100 µM
COc1cccc(C(=O)O[C@H]2[C@@H]3[C@]4(OC(C)=O)CO[C@@H]4C[C@H](O)[C@@]3(C)C(=O)[C@H](OC(C)=O)C3=C(C)[C@@H](OC(=O)[C@H](O)[C@@H](NC(=O)OC(C)(C)C)c4ccco4)C[C@]2(O)C3(C)C)c1	> 30 µM
Nn1c(-c2ccccc2)nn(C(=O)c2ccccc2)c1=O	> 100 µM
Cc1ccc(N=NC(=Nc2ccccc2)c2ccc(N(CCC#N)CCC#N)cc2)cc1	> 100 µM
CC1CCC(n2c3cnccc3c3cnc(Nc4ccc5c(n4)CCN(C(=O)CO)C5)nc32)CC1 (stereo not drawn)	> 100 µM
O=C(Nc1ccc(F)cc1)Nc1ccc(Cl)c([N+](=O)[O-])c1	14.3 µM
CCN(CC)CCSc1c2ccccc2nc2cc(NCC(=O)Nc3ccccc3-c3ccccc3NC(=O)CNc3ccc4c(SCCN(CC)CC)c5ccccc5nc4c3)ccc12	> 100 µM
COc1cc(C(=O)N(C(=S)OCc2ccccn2)c2ccccc2)cc(OC)c1OC	> 100 µM
CN(C)C(=O)O/N=C1/C(c2c(O)[nH]c3ccccc23)=Nc2ccccc21	39.1 µM
Cc1c(C(=O)C/C(=N/NC(=O)c2ccccc2O)C(=O)Nc2ccccc2C(C)C)[n+](=O)c2ccccc2n1[O-]	> 100 µM
Cn1cc(C2=C(c3c4n(c5ccccc35)CCCCC4)C(=O)NC2=O)c2ccccc21	> 25 µM
Cc1nc2sccn2c1-c1csc(Nc2ccccc2Cl)n1	> 100 µM

====

System: HL-60(TB) leukemia
assayRemarks: NCI tumour cell line growth inhibition, 48 h
The following compounds are shown together with reported TGI values.

compound	systemUnderTest	TGI
O=C(Nc1ccc(-n2ccc3c(NC(=O)c4ccccc4)nccc32)cc1)c1ccc(Cl)c(C(F)(F)F)c1	HL-60(TB) leukemia	9.78 µM
CN(C)C(=O)O/N=C1/C(c2c(O)[nH]c3ccccc23)=Nc2ccccc21	HL-60(TB) leukemia	> 100 µM
O=[N+]([O-])c1ccc2c(c1)c(OCc1ccccc1)nn2Cc1ccccc1	HL-60(TB) leukemia	> 100 µM
OC1CSSC1Cn1cnc2c(Nc3ccc(OCc4cccc(F)c4)c(Cl)c3)ncnc21 (stereo not drawn)	HL-60(TB) leukemia	20.8 µM
O=C(CCc1nc(=S)[nH][nH]1)Nc1cc(Cl)c(Cl)cc1Cl	HL-60(TB) leukemia	> 100 µM
Cc1ccc(-c2n[nH]c(=O)n2N2C(=O)c3ccccc3C2=O)cc1	HL-60(TB) leukemia	> 100 µM
CCOC(=O)Cn1c(C(F)(F)F)nc2nc(Cl)c(Cl)nc21	HL-60(TB) leukemia	42.9 µM
Cc1cc(NS(=O)(=O)c2ccc(Nc3c4ccccc4nc4c(C(=O)N5CCN(CCOS(C)(=O)=O)CC5)cccc34)cc2)no1	HL-60(TB) leukemia	> 100 µM
O=C1NC(=NCCc2cccc(F)c2)S/C1=C\c1ccc2ncccc2c1	HL-60(TB) leukemia	> 12.9 µM
Cc1cc(Cc2cc(C)c(N)cc2N)c(N)cc1N	HL-60(TB) leukemia	> 100 µM
N#CCCC1C(C#N)C2(Cl)CC1(Cl)C(Cl)=C2Cl (stereo not drawn)	HL-60(TB) leukemia	> 10 µM
Cc1cc(N(CCC#N)CCC#N)ccc1N=Nc1ccc(S(N)(=O)=O)cc1	HL-60(TB) leukemia	> 100 µM
C[N+](C)(C)CC(=O)N/N=C(/CC(=O)CC(C1=C(O)c2ccccc2OC1)c1ccccc1)C(=O)Nc1cccc(Cl)c1 (stereo not drawn)	HL-60(TB) leukemia	> 100 µM
Cc1ccnc2c1ccc1c(C)ccnc12	HL-60(TB) leukemia	2.39 µM
Nc1nc(Cl)cc(NCC2(CO)CC(=O)C2)n1	HL-60(TB) leukemia	> 100 µM
O=C(O)CCNCCCNCCC(=O)O	HL-60(TB) leukemia	> 100 µM
c1ccc(-c2nc(-c3ccccc3SSc3ccccc3-c3nc(-c4ccccc4)nn3-c3ccccc3)n(-c3ccccc3)n2)cc1	HL-60(TB) leukemia	> 100 µM
CCC(=O)[C@H](C)[C@@H](OC(=O)[C@H](C)CC)[C@H](C)[C@H]1OC(CC)=C(C)C(=O)[C@@H]1C	HL-60(TB) leukemia	40.3 µM
ClCCN1CCC2(CC1)SSC1(CCN(CCCl)CC1)S2	HL-60(TB) leukemia	76.8 µM
O=C1/C(=C/c2ccc(O)c(O)c2)CCC/C1=C\c1ccc(O)c(O)c1	HL-60(TB) leukemia	> 27.9 µM
Cn1cc(C2=C(c3c4n(c5ccccc35)CCCCC4)C(=O)NC2=O)c2ccccc21	HL-60(TB) leukemia	16.2 µM
CC1(C)C(=O)/C=C\C(=O)C(C)(C)C2=CC=C(O2)C(C)(C)C(=O)/C=C\C(=O)C(C)(C)C2=CC=C1O2	HL-60(TB) leukemia	> 100 µM
O=C(CCc1nc(=S)[nH][nH]1)Nc1ccc(Cl)c(Cl)c1	HL-60(TB) leukemia	> 100 µM
Cc1cn2c(/C=N/N=C(N)N)c(-c3cccc([N+](=O)[O-])c3)nc2s1	HL-60(TB) leukemia	3.86 µM
Cc1ccc2c(C)c3c(ccc4ccccc43)c[n+]2c1	HL-60(TB) leukemia	55.8 µM
O=C1CCCc2cc3c(cc21)CC1(Cc2ccccc2C1)C3	HL-60(TB) leukemia	5.02 µM
O=C1/C(=C/c2ccccc2)N=C2Sc3c(nc[nH]c3=O)N12	HL-60(TB) leukemia	> 100 µM
Cc1ccc(CN2CCC(C(=O)Nc3ccc(-c4cc5ccccc5[nH]4)cc3)CC2)o1	HL-60(TB) leukemia	> 100 µM

====

Test system: EKVX NSCLC
assayRemarks: NCI tumour cell line growth inhibition, 48 h
Some molecules, each annotated with its measured TGI.

molecule	TGI
CN(C)C(=O)O/N=C1/C(c2c(O)[nH]c3ccccc23)=Nc2ccccc21	33.5 µM
[N-]=[N+]=NC[C@H]1OCO[C@H](CN=[N+]=[N-])[C@@H](OCCOCCCl)[C@@H]1OCCOCCCl	> 100 µM
COC(=O)C([C@H](NC1(c2ccccc2)c2ccccc2-c2ccccc21)C(=O)OC)N(NC(=O)OCc1ccccc1)C(=O)OCc1ccccc1 (mixture of isomers)	> 100 µM
O=C1/C(=C/c2ccc(O)c(O)c2)CCC/C1=C\c1ccc(O)c(O)c1	32.4 µM
Cc1cc(Cc2cc(C)c(N)cc2N)c(N)cc1N	> 100 µM
CC(C)CCS(=O)(=O)OCCCCOS(=O)(=O)CCC(C)C	> 100 µM
COc1cc(/C=N\NC(=O)CN2CCN(c3cc4c(cc3F)c(=O)c(C(=O)N/N=C/c3cc(OC)c(OC)c(OC)c3)cn4C3CC3)CC2)cc(OC)c1OC	> 100 µM
N#CCCC1C(C#N)C2(Cl)CC1(Cl)C(Cl)=C2Cl (stereo not given)	> 10 µM
Cc1ccnc2c1ccc1c(C)ccnc12	12.7 µM
CC(=O)[CH-]C(=O)c1ccccc1.CC(=O)[CH-]C(=O)c1ccccc1.CN(C)c1ccc([O-])cc1.CN(C)c1ccc([O-])cc1.Cl.[Ti+4]	> 31.6 µM
C=CCOc1ccc2c(C)cc(=O)oc2c1C	> 100 µM
C[C@@H](NC(=O)[C@@H]1C[C@]1(C)COC(=O)c1cc([N+](=O)[O-])cc([N+](=O)[O-])c1)c1cccc2ccccc12	> 100 µM
COc1cccc(C2c3cc4c(cc3OC(C)(N3CCCC3)C2C)OCO4)c1O (stereo not given)	> 91.6 µM
O=C1CSC(c2ccc(Cl)cc2)N1c1ccc(Oc2ccc(Cl)cc2)c(Cl)c1 (stereo not given)	27.2 µM
C=C1C(=O)O[C@@H]2C(=O)[C@@H](C)CCC/C(C)=C/CC[C@@]3(C)O[C@@H]3C[C@@H]12	> 100 µM
N#CC1(C#N)N[C@@H](c2ccsc2)[C@H]2C(=O)N(c3ccccc3)C(=O)[C@H]21	> 100 µM
CN(C)c1ccc(/C=C\C2=[N+](C)c3ccccc3C2(C)C)cc1	> 100 µM
CC[C@@H]1CC[C@@H]2[C@H](CC[C@]3(C)[C@@H](OC(C)=O)CC[C@@H]23)[C@H]1COC(C)=O	73.6 µM
Cc1c(O)c(O)cc[n+]1C1OC(CO)C(O)C1O (stereo not given)	> 100 µM
CCOC(=O)Cn1c(C(F)(F)F)nc2nc(Cl)c(Cl)nc21	29.4 µM
Nc1nc(Cl)cc(NCC2(CO)CC(=O)C2)n1	> 100 µM
C=C(C)C(OC)C(O)CC1(C)CC(O)CC(C)(C2CCC3OC(C4(C)CCC(Br)C(C)(C)O4)CCC3(C)O2)O1 (stereo not given)	34.1 µM
COc1cccc(C(=O)O[C@H]2[C@@H]3[C@]4(OC(C)=O)CO[C@@H]4C[C@H](O)[C@@]3(C)C(=O)[C@H](OC(C)=O)C3=C(C)[C@@H](OC(=O)[C@H](O)[C@@H](NC(=O)OC(C)(C)C)c4ccco4)C[C@]2(O)C3(C)C)c1	> 28.9 µM
Cc1ccc(S(=O)(=O)OC[C@@H]2CO2)cc1	> 100 µM
OCCN(CCO)c1ncnc2c1ncn2Cc1ccc(CCl)cc1	31.8 µM
COc1cc2cc(OC)c3cc4c(cc3c2c(OC)c1OC)OCO4	> 92 µM
COc1cc2c(cc1OCCCCN1CCN(CC(=O)Nc3ccc(Cl)cc3C(=O)c3ccccc3Cl)CC1)N=CC1CCCN1C2=O (stereo not given)	1.07 µM
Cc1ccc2c(C)c3c(ccc4ccccc43)c[n+]2c1	> 100 µM
CC1(C(=O)O)CCC[C@@]2(C)C1CC[C@@]1(C)c3cocc3CCC21 (stereo not given in full)	> 100 µM
CCN1CCN(Cc2ccc(NC(=O)c3cccc(C#Cc4cccc5[nH]nc(N)c45)c3)cc2C(F)(F)F)CC1	2.73 µM
